Attribution: PubChem BioAssay (EPA / NIEHS)

measurement.notes: Tanguay_ZF_120hpf_AXIS_legacy: (Legacy) Oregon State University Tanguay Lab 120 Hour Post-fertilization zebrafish Assay for Body Axis Malformation (AID 2283635)
Records with an inconclusive call do not appear. Active and inactive are the calls of the source. How the source made its calls: active means hit-call score of the fitted dose curve at least 0.9, where 1 is the maximum; inconclusive means response in the unintended direction; inactive means score below 0.9.
Thanks in advance; please answer with one of these: t (active), f (inactive)

Outcome logged for `CCOP(=S)(OCC)Oc1ccc2c(C)c(Cl)c(=O)oc2c1` in this assay:
f

And `CNC(=O)ON=C(C)SC` ?
t

And `C#CC(C)(C)NC(=O)c1cc(Cl)cc(Cl)c1` ?
f

And CCc1cccc(C)c1N(C(=O)CCl)C(C)COC (stereo unspecified) ?
f

And `CCOC(=O)COc1cc(-c2nn(C)c(OC(F)F)c2Cl)c(F)cc1Cl` ?
f

And CC(COc1ccc(Oc2ccccc2)cc1)Oc1ccccn1 (stereo unspecified) ?
f

And `CON=C(C(=O)OC)c1ccccc1CON=C(C)c1cccc(C(F)(F)F)c1` ?
f

And `N#CSCSC#N` ?
f

And `CCCCSP(=O)(SCCCC)SCCCC` ?
f

And `CCOP(=S)(OCC)Oc1ccc([N+](=O)[O-])cc1` ?
f

And CCCSP(=O)(OCC)Oc1ccc(Br)cc1Cl (stereo unspecified) ?
f

----------
measurement.notes: TOX21_p53_BLA_p5_viability: Viability Assessment in the Tox21 HCT-116 p53 Agonism Beta-lactamase Assay, Phase 5 (AID 2283600)
Inconclusive results are not listed. Calls of active or inactive are those of the source. Rule for the calls: active = hit-call score of the fitted dose curve at least 0.9, where 1 is the maximum; inconclusive = response in the unintended direction; inactive = score below 0.9.
outcome.measure: outcome

{"molecule": "CSC1=N[C@@](C)(c2ccccc2)C(=O)N1Nc1ccccc1", "outcome": "inactive"}
{"molecule": "CCOP(=O)(NC(C)C)Oc1ccc(SC)c(C)c1 (configuration not stated)", "outcome": "inactive"}
{"molecule": "CCC(=O)Nc1ccc(Cl)c(Cl)c1", "outcome": "inactive"}
{"molecule": "Nc1nc(N)nc(NC2CC2)n1", "outcome": "inactive"}
{"molecule": "CCOP(=S)(OCC)OC(Cl)C(Cl)(Cl)Cl (configuration not stated)", "outcome": "inactive"}
{"molecule": "CCOP(=S)(Oc1cnc(C(C)(C)C)nc1)OC(C)C (configuration not stated)", "outcome": "inactive"}

We next turn to a different molecule, shown below.
Could you share which outcome value was measured for `CC(C)N(C(=O)SCC(Cl)=C(Cl)Cl)C(C)C` ?
inactive

----------
Read-out: Interleukin-8 (IL8), CXCL8 (gene 3576)
measurement.notes: BSK_CASM3C_IL8: BioMAP Diversity Plus: CASM3C Assay for Interleukin-8 (IL8) Biomarker Activity (AID 2283042);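 further: IL-8 protein level quantified by ELISA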
assay.conditions: primary human coronary artery smooth muscle cells; actives raise or lower the signal
Activity calls are given as the source filed them. How the source made its calls: active means hit-call score of the fitted dose curve at least 0.9, where 1 is the maximum; inactive means score below 0.9.
Thanks in advance; please answer with one of these: active, inactive

Outcome logged for `Cc1cc(C2CC2)nc(Nc2ccccc2)n1` in this assay:
inactive

And `Cc1ccn2nc(S(=O)(=O)Nc3c(F)cccc3F)nc2n1` ?
inactive

And `C#CC(C)(C)NC(=O)c1cc(Cl)cc(Cl)c1` ?
inactive

And `CN(C)[C@@H]1C(=O)C(C(N)=O)=C(O)[C@@]2(O)C(=O)C3=C(O)c4c(O)cccc4[C@@](C)(O)[C@H]3[C@H](O)[C@@H]12` ?
inactive

And `CCCCN(CC)c1c([N+](=O)[O-])cc(C(F)(F)F)cc1[N+](=O)[O-]` ?
inactive

And FC(F)C(F)(F)OCC(Cn1cncn1)c1ccc(Cl)cc1Cl (stereo not given) ?
inactive

And `CCOC(=O)COc1cc(-c2nn(C)c(OC(F)F)c2Cl)c(F)cc1Cl` ?
inactive

And `CCc1cccc(CC)c1N(COC)C(=O)CCl` ?
inactive

And `CCCCOC(=O)[C@@H](C)Oc1ccc(Oc2ccc(C#N)cc2F)cc1` ?
inactive

And `CC1(C(=O)Nc2ccc(O)c(Cl)c2Cl)CCCCC1` ?
inactive

And CC(C)=CC1C(C(=O)OCN2C(=O)C3=C(CCCC3)C2=O)C1(C)C (stereo not given) ?
inactive

And CC(COc1ccc(Oc2ccccc2)cc1)Oc1ccccn1 (stereo not given) ?
inactive

And `CCOP(=S)(OCC)SCCSCC` ?
inactive

And CCC(=NOC/C=C/Cl)C1=C(O)CC(C2CCOCC2)CC1=O (stereo not given) ?
inactive

And `CCCCSP(=O)(SCCCC)SCCCC` ?
inactive

And CC(Oc1cccc(Cl)c1)C(=O)O (stereo not given) ?
inactive

And `CCOP(=O)(OCC)Oc1cc(C)nc(C(C)C)n1` ?
inactive

And CCOP(=S)(Oc1cnc(C(C)(C)C)nc1)OC(C)C (stereo not given) ?
inactive

And `CSC1=N[C@@](C)(c2ccccc2)C(=O)N1Nc1ccccc1` ?
inactive

And `C[Si](Cn1cncn1)(c1ccc(F)cc1)c1ccc(F)cc1` ?
inactive

And CCOP(=O)(SC(C)CC)N1CCSC1=O (stereo not given) ?
inactive

And COP(=O)(OC)OC(Br)C(Cl)(Cl)Br (stereo not given) ?
active

And `CNC(=O)ON=C(C)SC` ?
inactive

And `C=C(C)[C@H]1Cc2c(ccc3c2O[C@@H]2COc4cc(OC)c(OC)cc4[C@@H]2C3=O)O1` ?
inactive

And `N#CSCSC#N` ?
active

----------
Read-out: ABC Transporter (ABCC3), ABCC3 (gene 8714)
measurement.notes: LTEA_HepaRG_ABCC3: Life Technologies and Expression Analysis (LTEA) Assay for ABC Transporter (ABCC3) using HepaRG (AID 2283462)
assay.conditions: mRNA level, 48 h; actives raise or lower the signal
The source made the active and inactive calls. The calls were made as follows: active = hit-call score of the fitted dose curve at least 0.9, where 1 is the maximum; inactive = score below 0.9.
Thanks in advance; please answer with one of these: Y (active), N (inactive)

Outcome logged for CCOC(=O)CC(SP(=O)(OC)OC)C(=O)OCC (centres undefined) in this assay:
N

And CCOP(=S)(Oc1cnc(C(C)(C)C)nc1)OC(C)C (centres undefined) ?
N

And `CCCOc1nn(C(=O)NS(=O)(=O)c2ccccc2C(=O)OC)c(=O)n1C` ?
N

And `CNC(=O)ON=C(SC)C(=O)N(C)C` ?
N

And COP(=O)(OC)C(O)C(Cl)(Cl)Cl (centres undefined) ?
N

And `O=[N+]([O-])c1cc(C(F)(F)F)c(Cl)c([N+](=O)[O-])c1Nc1ncc(C(F)(F)F)cc1Cl` ?
Y

And `COc1cc(OC)nc(Sc2cccc(Cl)c2C(=O)O)n1` ?
N

And `CCCCSP(=O)(SCCCC)SCCCC` ?
N

And `CCCOCC(=Nc1ccc(Cl)cc1C(F)(F)F)n1ccnc1` ?
N

And `CC(=NC#N)N(C)Cc1ccc(Cl)nc1` ?
N

And `C#CC(C)(C)NC(=O)c1cc(Cl)cc(Cl)c1` ?
N

And CCOP(=O)(SC(C)CC)N1CCSC1=O (centres undefined) ?
N

And `CCOP(=S)(OCC)SCCSCC` ?
N

And CCCSP(=O)(OCC)Oc1ccc(Br)cc1Cl (centres undefined) ?
N

And CCOP(=O)(NC(C)C)Oc1ccc(SC)c(C)c1 (centres undefined) ?
N

And `CCc1cccc(CC)c1N(COC)C(=O)CCl` ?
N

And `CCC(=O)Nc1ccc(Cl)c(Cl)c1` ?
N

And `CN(C)[C@@H]1C(=O)C(C(N)=O)=C(O)[C@@]2(O)C(=O)C3=C(O)c4c(O)cccc4[C@@](C)(O)[C@H]3[C@H](O)[C@@H]12` ?
N

And FC(F)C(F)(F)OCC(Cn1cncn1)c1ccc(Cl)cc1Cl (centres undefined) ?
Y

And `CCOP(=S)(OCC)Oc1cc(C)nc(C(C)C)n1` ?
N

And `O=C(O)c1cc(Oc2ccc(C(F)(F)F)cc2Cl)ccc1[N+](=O)[O-]` ?
N

And `CSC1=N[C@@](C)(c2ccccc2)C(=O)N1Nc1ccccc1` ?
Y

And `CC1=NNC(=O)N(/N=C/c2cccnc2)C1` ?
N

And CCc1cccc(C)c1N(C(=O)CCl)C(C)COC (centres undefined) ?
N

And `CNC(=O)ON=C(C)SC` ?
N

And `CCCCOC(=O)[C@@H](C)Oc1ccc(Oc2ccc(C#N)cc2F)cc1` ?
N

And `CCOP(=S)(OCC)Oc1ccc2c(C)c(Cl)c(=O)oc2c1` ?
N

And CCOP(=S)(OCC)OC(Cl)C(Cl)(Cl)Cl (centres undefined) ?
N

And CC(C)=CC1C(C(=O)OCN2C(=O)C3=C(CCCC3)C2=O)C1(C)C (centres undefined) ?
N

And CC(Oc1cccc(Cl)c1)C(=O)O (centres undefined) ?
N

And `CC(C)[C@H](C(=O)O[C@H](C#N)c1cccc(Oc2ccccc2)c1)c1ccc(Cl)cc1` ?
N

And `Cc1ccn2nc(S(=O)(=O)Nc3c(F)cccc3F)nc2n1` ?
N

And CCc1cnc(C2=NC(C)(C(C)C)C(=O)N2)c(C(=O)O)c1 (centres undefined) ?
N

And `CNC(=O)Oc1cccc2c1OC(C)(C)O2` ?
N
